// values below are reported Approximate therapeutic index
- Test system: rats

- molecule: "C[C@H](c1ccccc1)n1cncc1C(=O)OCCC1CCC1"
  testValue: ">22"
- molecule: "CC#CC(C)(C)OC(=O)c1cncn1[C@H](C)c1ccccc1"
  testValue: ">13"
- molecule: "C[C@H](c1ccccc1)n1cncc1C(=O)OCC1CC(F)(F)C1"
  testValue: ">16"
- molecule: "CCC(=O)C1(OC(=O)c2cncn2[C@H](C)c2ccccc2)CC1"
  testValue: ">14"
- molecule: "C#CC1(OC(=O)c2c(F)ncn2[C@H](C)c2ccccc2)COC1"
  testValue: ">20"
- molecule: "C=CC(CC)(CC)OC(=O)c1cncn1[C@H](C)c1ccccc1"
  testValue: ">13"
- molecule: "C[C@H](c1ccccc1)n1cncc1C(=O)OC1CCC1"
  testValue: ">11"
- molecule: "C=C=CC(CC)OC(=O)c1c(F)ncn1[C@H](C)c1ccccc1 (stereo partly drawn)"
  testValue: ">12"

rats assay, molecule C[C@H](c1ccccc1)n1cncc1C(=O)OCC1(C2CO2)CCC1 (stereo partly drawn) , recorded Approximate therapeutic index = >16

Where do these numbers come from? They come from patent US11434205B2.
